# subject of test: PAF receptor (Homo sapiens, UniProt P25105)
# Construct: Platelets are obtained from healthy men according to the usual method; endogenous in cells; host or cells: platelets from healthy men
# Sequence (P25105 whole entry): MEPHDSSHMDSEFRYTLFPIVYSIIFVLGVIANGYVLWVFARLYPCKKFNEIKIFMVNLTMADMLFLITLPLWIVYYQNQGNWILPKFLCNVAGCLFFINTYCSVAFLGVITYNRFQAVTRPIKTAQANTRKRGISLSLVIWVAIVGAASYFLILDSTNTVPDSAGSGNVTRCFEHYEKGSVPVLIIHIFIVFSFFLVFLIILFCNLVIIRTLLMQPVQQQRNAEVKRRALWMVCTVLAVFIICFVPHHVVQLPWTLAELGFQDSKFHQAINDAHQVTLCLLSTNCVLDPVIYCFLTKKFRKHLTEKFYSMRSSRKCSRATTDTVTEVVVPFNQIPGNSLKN
# experiment: PAF Receptor Binding Assay to the Human Platelet (3H-PAF)
# setup conditions: human platelets, 3H-PAF 0.6-1 nM, 37° C., pH 7.0; read-out: PAF receptor binding assay IC50
pIC50: −log10 of the molar value.
Decision: pIC50 compared against 9; not below it gives Criterion met, below it gives Criterion not met.

compound	qualitative label
Cc1nnc2n1-c1sc3c(c1C(c1ccccc1Cl)=NC2C)CCN(C(=O)OC(C)(C)C#N)C3 (single isomer, unassigned) [drawing 91]	Criterion not met
Cc1nnc2n1-c1sc3c(c1C(c1ccccc1Cl)=NC2C)CCN(C(=O)OC(C)(C)C#N)C3 (single isomer, unassigned) [drawing 90]	Criterion not met
C#CCCOC(=O)N1CCc2c(sc3c2C(c2ccccc2Cl)=NC(C)c2nnc(C)n2-3)C1 (single isomer, unassigned) [drawing 92]	Criterion not met
C#CCCOC(=O)N1CCc2c(sc3c2C(c2ccccc2Cl)=NC(C)c2nnc(C)n2-3)C1 (single isomer, unassigned) [drawing 93]	Criterion met

----------
# subject of test: PAF receptor (Homo sapiens, UniProt P25105)
# Construct: Platelets are obtained from healthy men according to the usual method; endogenous in cells; host or cells: platelets from healthy men
# experiment: PAF Receptor Binding Assay to the Human Platelet (3H-PAF)
# setup conditions: PAF receptor binding assay IC50, human platelets, 3H-PAF 0.6-1 nM, 37° C., pH 7.0
# Protocol: Platelets are obtained from healthy men according to the usual method and suspended at a concentration of 10^8 platelets/460 μl in a binding buffer (10 mM phosphate-buffers saline (pH 7.0), with 0.1% (w/V) BSA and 0.9 mM CaCl2). […] After drying the glass filter, radioactivity on the glass filter was measured in scintilator with a liquid scintillation counter. The inhibition percent is calculated according to the following equation and the value of IC is determined by interpolation from the figure. […]
Reported IC50 by item:

molecule	IC50 [nM]
C#CCCCCOC(=O)N1CCc2c(sc3c2C(c2ccccc2Cl)=NCc2nnc(C)n2-3)C1	0.22
Cc1nnc2n1-c1sc3c(c1C(c1ccccc1Cl)=NC2C)CCN(C(=O)C1CC1)C3 (single isomer, unassigned) [drawing 95]	2.8
Cc1nnc2n1-c1sc3c(c1C(c1ccccc1Cl)=NC2)CCN(C(=O)C#Cc1ccccc1)C3	0.56
Cc1nnc2n1-c1sc3c(c1C(c1ccccc1Cl)=NC2)CCN(C(=O)OC(C)(C)C#N)C3	3.3
C#CCCOC(=O)N1CCc2c(sc3c2C(c2ccccc2Cl)=NCc2nnc(C)n2-3)C1 [drawing 83]	3.5
Cc1nnc2n1-c1sc3c(c1C(c1ccccc1Cl)=NC2C)CCN(C(=O)C1CC1)C3 (single isomer, unassigned) [drawing 94]	420
Cc1nnc2n1-c1sc3c(c1C(c1ccccc1Cl)=NC2)CCN(C(=O)OCCCC#N)C3 [drawing 82]	2.7
CCC#CCOC(=O)N1CCc2c(sc3c2C(c2ccccc2Cl)=NCc2nnc(C)n2-3)C1	0.74
Cc1nnc2n1-c1sc3c(c1C(c1ccccc1Cl)=NC2)CCN(C(=O)OCCCC#N)C3 [drawing 89]	4.4
Cc1nnc2n1-c1sc3c(c1C(c1ccccc1Cl)=NC2)CCN(C(=O)C1CCC1)C3	1.8
